target: PDGFR-β kinase (Homo sapiens); construct: recombinant N-terminal 6×His-tagged PDGFR-β kinase domain construct expressed by baculovirus; 6xHis (N); made in house; test: PDGFR-β kinase assay (33P incorporation into Poly(Glu-Tyr)); format: biochemical; conditions: 500 nM test compound
Sequence (P09619 600-962 limits assumed): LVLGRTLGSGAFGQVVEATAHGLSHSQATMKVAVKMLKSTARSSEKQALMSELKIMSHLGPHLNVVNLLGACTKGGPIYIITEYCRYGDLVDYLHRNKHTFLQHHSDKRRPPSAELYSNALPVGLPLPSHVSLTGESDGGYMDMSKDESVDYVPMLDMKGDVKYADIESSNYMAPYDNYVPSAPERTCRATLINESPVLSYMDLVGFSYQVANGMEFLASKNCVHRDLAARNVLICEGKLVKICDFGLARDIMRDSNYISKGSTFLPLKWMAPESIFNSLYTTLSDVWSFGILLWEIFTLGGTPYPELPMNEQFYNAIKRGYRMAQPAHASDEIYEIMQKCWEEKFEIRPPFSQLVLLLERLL
RECORDED_METRIC: inhibition at 0.5 µM (%)

Reference set (2 entries):
CN(C)S(=O)(=O)c1ccc2c(c1)/C(=C/c1[nH]c3c(c1CCC(=O)O)C(=O)CCC3)C(=O)N2    16.9
CCOC(=O)CCc1c(/C=C2\C(=O)Nc3cc(-c4ccc5c(c4)OCO5)ccc32)[nH]c2c1C(=O)CCC2    9

1: O=C(O)CCc1c(/C=C2\C(=O)Nc3ccc(S(=O)(=O)N4CCc5ccccc54)cc32)[nH]c2c1C(=O)CCC2
2: CCOC(=O)CCc1c(/C=C2\C(=O)Nc3ccc(-c4cc5ccccc5s4)cc32)[nH]c2c1C(=O)CCC2
Prompt: Form field 'greater inhibition at 0.5 µM' accepts 1 or 2 ; which applies? Kindly state the label of the option you pick.
Response: 1
(1: 36.3%, 2: 6.8%)

The measured values listed here are drawn from patent US7897602B2.
